For each record, write down the corresponding growth.
System: HS 578T breast
PROCEDURE TEXT: NCI-60 one-dose screen, 48 h (100 = growth as untreated, 0 = no growth, -100 = all killed)
TEST CONDITIONS: 10 µM unless noted
The panel holds about 83,000 compounds, 20% with a hit somewhere; the sample as a whole holds those more often.
Give bare numbers, in %.

# example entries with known answers
- CN1CC2CCC(C1)C2=O: 108
- Oc1ccccc1OB(Oc1ccccc1O)N(CCCl)CCCl: 106

Please turn your attention to the following entry.
Fill in the blank: the reported growth of CC(=O)O[C@H]1CCC2(C)C(=CCC3C2CCC2(C)/C(=N/OC(=O)c4ccc(N(CCCl)CCCl)cc4)CCC32)C1 (stereo partly drawn) is ____.
27
